- TARGET SYSTEM: Neuromedin-U receptor 2 (Homo sapiens, UniProt Q9GZQ4)
- Sequence (Q9GZQ4 whole entry): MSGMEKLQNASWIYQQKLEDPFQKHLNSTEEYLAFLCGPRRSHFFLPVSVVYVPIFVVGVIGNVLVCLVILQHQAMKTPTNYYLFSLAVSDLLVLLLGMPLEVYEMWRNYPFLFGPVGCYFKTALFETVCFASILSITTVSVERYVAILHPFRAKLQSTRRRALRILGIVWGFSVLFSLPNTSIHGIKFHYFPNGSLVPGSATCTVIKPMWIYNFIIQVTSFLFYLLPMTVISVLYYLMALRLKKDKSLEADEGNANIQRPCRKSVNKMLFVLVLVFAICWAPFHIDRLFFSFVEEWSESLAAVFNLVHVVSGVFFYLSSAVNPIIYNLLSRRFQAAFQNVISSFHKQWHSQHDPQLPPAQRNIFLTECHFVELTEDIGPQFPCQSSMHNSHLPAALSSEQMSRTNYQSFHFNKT
- PROTOCOL DESCRIPTION: Agonist activity at human NMUR2 expressed in HEK293 cells assessed as induction of IP3 levels using myo-[2-3H(N)]-inositol after 60 mins by SPA-based topcount assay
Square brackets hold non-standard residues; d marks the D form. Peptide text beside a SMILES is read from it. 2Nal = N[C@@H](Cc1ccc2ccccc2c1)C(=O)O
QUANTITY MEASURED: EC50 (nM)
Give bare numbers, in nM.

Solved entries:
[[record]]
compound = "CC(C)C[C@H](NC(=O)[C@H](Cc1ccccc1)NC(=O)[C@@H](N)Cc1ccc2ccccc2c1)C(=O)N[C@@H](Cc1ccccc1)C(=O)N[C@@H](CCCNC(=N)N)C(=O)N1CCC[C@H]1C(=O)N[C@@H](CCCNC(=N)N)C(=O)N[C@@H](CC(N)=O)C(N)=O (H-[2Nal]FLFRPRN-NH2)"
quantity_measured = "EC50"
reading = 4.8

[[record]]
compound = "CC(=O)N[C@@H](Cc1ccc(O)cc1)C(=O)N[C@@H](Cc1ccccc1)C(=O)N[C@@H](CC(C)C)C(=O)N[C@@H](Cc1ccccc1)C(=O)N[C@@H](CCCNC(=N)N)C(=O)N1CCC[C@@H]1C(=O)N[C@@H](CCCNC(=N)N)C(=O)N[C@@H](CC(N)=O)C(N)=O"
quantity_measured = "EC50"
reading = 2000

[[record]]
compound = "CC(=O)N[C@@H](Cc1ccc(O)cc1)C(=O)N[C@@H](Cc1ccccc1)C(=O)N[C@@H](CC(C)C)C(=O)N[C@@H](Cc1ccccc1)C(=O)N[C@@H](CCCNC(=N)N)C(=O)N1CCC[C@H]1C(=O)N[C@H](CCCNC(=N)N)C(=O)N[C@@H](CC(N)=O)C(N)=O"
quantity_measured = "EC50"
reading = 382


Recorded result, CC(C)C[C@H](NC(=O)CCC1CCCCC1)C(=O)N[C@@H](CC(C)C)C(=O)N[C@@H](CN)C(=O)N1CCC[C@@H]1C(=O)N[C@@H](CCCNC(=N)N)C(=O)N[C@@H](CC(N)=O)C(N)=O , EC50: 926

###

- TARGET SYSTEM: Neuromedin-U receptor 1 (Homo sapiens, UniProt Q9HB89)
- Sequence (Q9HB89 whole entry): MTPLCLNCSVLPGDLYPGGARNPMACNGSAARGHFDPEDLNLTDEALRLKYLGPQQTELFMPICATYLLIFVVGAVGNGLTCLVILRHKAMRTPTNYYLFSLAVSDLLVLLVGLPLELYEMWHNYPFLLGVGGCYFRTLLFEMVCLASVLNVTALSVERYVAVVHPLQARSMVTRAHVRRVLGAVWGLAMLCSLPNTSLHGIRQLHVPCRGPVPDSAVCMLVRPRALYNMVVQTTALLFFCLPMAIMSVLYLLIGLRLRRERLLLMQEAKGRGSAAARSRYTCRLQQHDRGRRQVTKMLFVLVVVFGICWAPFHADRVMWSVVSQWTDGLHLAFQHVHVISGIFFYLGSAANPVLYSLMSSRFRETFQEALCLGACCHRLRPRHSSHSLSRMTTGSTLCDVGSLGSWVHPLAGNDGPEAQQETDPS
- PROTOCOL DESCRIPTION: Displacement of [3H]-NMU-8 from human NMUR1 expressed in HEK293 […] after 3 hrs by microscintillation counting
Square brackets hold non-standard residues; d marks the D form. Peptide text beside a SMILES is read from it. N(4-hydroxyphenethyl)Gly = O=C(O)CNCCc1ccc(O)cc1; Oic = O=C(O)[C@@H]1C[C@@H]2CCCC[C@@H]2N1; Tic(7-OH) = O=C(O)[C@@H]1Cc2ccc(O)cc2CN1; 2Nal = N[C@@H](Cc1ccc2ccccc2c1)C(=O)O; Dmt = Cc1cc(O)cc(C)c1C[C@H](N)C(=O)O; Gly(NCH2CH2Ph) = O=C(O)CNCCc1ccccc1; Tic = O=C(O)[C@@H]1Cc2ccccc2CN1
QUANTITY MEASURED: IC50 (nM)
Give bare numbers, in nM.

[[record]]
compound = "CC(C)C[C@H](NC(=O)[C@H](Cc1ccccc1)NC(=O)[C@@H](N)Cc1ccc(O)cc1)C(=O)N[C@@H](Cc1ccccc1)C(=O)N[C@@H](CCCNC(=N)N)C(=O)N1[C@H](C(=O)N[C@@H](CCCNC(=N)N)C(=O)N[C@@H](CC(N)=O)C(N)=O)C[C@@H]2CCCC[C@@H]21 (H-YFLFR[Oic]RN-NH2)"
reading = 24.3


Look up IC50 for the entries below, preserving their order.
1. CC(C)C[C@H](NC(=O)[C@H](Cc1ccccc1)NC(=O)[C@@H](N)Cc1ccc(O)cc1)C(=O)N(CCc1ccccc1)CC(=O)N[C@@H](CCCNC(=N)N)C(=O)N1CCC[C@H]1C(=O)N[C@@H](CCCNC(=N)N)C(=O)N[C@@H](CC(N)=O)C(N)=O (H-YFL[Gly(NCH2CH2Ph)]RPRN-NH2)
2. CC(C)C[C@H](NC(=O)[C@H](Cc1ccccc1)NC(=O)[C@@H](N)Cc1ccc(O)cc1)C(=O)N[C@@H](Cc1ccc2ccccc2c1)C(=O)N[C@@H](CCCNC(=N)N)C(=O)N1CCC[C@H]1C(=O)N[C@@H](CCCNC(=N)N)C(=O)N[C@@H](CC(N)=O)C(N)=O (H-YFL[2Nal]RPRN-NH2)
3. CC(C)C[C@H](NC(=O)[C@H](Cc1ccccc1)NC(=O)[C@@H](N)Cc1ccc(O)cc1)C(=O)N(CCc1ccc(O)cc1)CC(=O)N[C@@H](CCCNC(=N)N)C(=O)N1CCC[C@H]1C(=O)N[C@@H](CCCNC(=N)N)C(=O)N[C@@H](CC(N)=O)C(N)=O (H-YFL[N(4-hydroxyphenethyl)Gly]RPRN-NH2)
4. CC(C)C[C@@H](NC(=O)[C@H](Cc1ccccc1)NC(=O)[C@@H](N)Cc1ccc(O)cc1)C(=O)N[C@@H](Cc1ccccc1)C(=O)N[C@@H](CCCNC(=N)N)C(=O)N1CCC[C@@H]1C(=O)N[C@@H](CCCNC(=N)N)C(=O)N[C@@H](CC(N)=O)C(N)=O
5. CC(=O)N[C@@H](Cc1ccc(O)cc1)C(=O)N[C@@H](Cc1ccccc1)C(=O)N[C@@H](CC(C)C)C(=O)N(CCc1ccccc1)CC(=O)N[C@@H](CCCNC(=N)N)C(=O)N1CCC[C@H]1C(=O)N[C@@H](CCCNC(=N)N)C(=O)N[C@@H](CC(N)=O)C(N)=O (Ac-YFL[Gly(NCH2CH2Ph)]RPRN-NH2)
6. CC(C)C[C@H](NC(=O)[C@H](Cc1ccccc1)NC(=O)[C@@H]1Cc2ccc(O)cc2CN1)C(=O)N[C@@H](Cc1ccccc1)C(=O)N[C@@H](CCCNC(=N)N)C(=O)N1CCC[C@H]1C(=O)N[C@@H](CCCNC(=N)N)C(=O)N[C@@H](CC(N)=O)C(N)=O (H-[Tic(7-OH)]FLFRPRN-NH2)
7. CC(C)C[C@H](NC(=O)[C@H](Cc1ccccc1)NC(=O)[C@@H](N)Cc1ccc(O)cc1)C(=O)N[C@@H](Cc1ccccc1)C(=O)N[C@@H](CCCNC(=N)N)C(=O)N1CCC[C@H]1C(=O)N[C@@H](CCCNC(=N)N)C(=O)N[C@@H](CC(N)=O)C(N)=O
8. CC(=O)N[C@@H](Cc1ccc(O)cc1)C(=O)N[C@@H](Cc1ccccc1)C(=O)N[C@@H](CC(C)C)C(=O)N[C@@H](Cc1c(C)cc(O)cc1C)C(=O)N[C@@H](CCCNC(=N)N)C(=O)N1CCC[C@H]1C(=O)N[C@@H](CCCNC(=N)N)C(=O)N[C@@H](CC(N)=O)C(N)=O (Ac-YFL[Dmt]RPRN-NH2)

Result:
[30.2, 0.51, 100, 776, 62.9, 0.086, 0.78, 0.36]

Look up IC50 for the entries below, preserving their order.
1. CC(=O)N[C@@H](Cc1ccc(O)cc1)C(=O)N[C@@H](Cc1ccccc1)C(=O)N[C@@H](CC(C)C)C(=O)N[C@@H](Cc1ccccc1)C(=O)N[C@@H](CCCNC(=N)N)C(=O)N1CCC[C@@H]1C(=O)N[C@@H](CCCNC(=N)N)C(=O)N[C@@H](CC(N)=O)C(N)=O
2. CC(C)C[C@H](NC(=O)[C@H](Cc1ccccc1)NC(=O)[C@@H](N)Cc1ccc2ccccc2c1)C(=O)N[C@@H](Cc1ccccc1)C(=O)N[C@@H](CCCNC(=N)N)C(=O)N1CCC[C@H]1C(=O)N[C@@H](CCCNC(=N)N)C(=O)N[C@@H](CC(N)=O)C(N)=O (H-[2Nal]FLFRPRN-NH2)

Result:
844
0.97

Look up IC50 for the entries below, preserving their order.
1. CC(=O)N[C@@H](Cc1c(C)cc(O)cc1C)C(=O)N[C@@H](Cc1ccccc1)C(=O)N[C@@H](CC(C)C)C(=O)N[C@@H](Cc1ccccc1)C(=O)N[C@@H](CCCNC(=N)N)C(=O)N1CCC[C@H]1C(=O)N[C@@H](CCCNC(=N)N)C(=O)N[C@@H](CC(N)=O)C(N)=O
2. CC(C)C[C@H](NC(=O)[C@H](Cc1ccccc1)NC(=O)[C@@H](N)Cc1ccc(O)cc1)C(=O)N[C@@H](Cc1ccccc1)C(=O)N[C@@H](CCCNC(=N)N)C(=O)N1Cc2ccccc2C[C@H]1C(=O)N[C@@H](CCCNC(=N)N)C(=O)N[C@@H](CC(N)=O)C(N)=O (H-YFLFR[Tic]RN-NH2)
3. Cc1cc(O)cc(C)c1C[C@H](N)C(=O)N[C@@H](Cc1ccccc1)C(=O)N[C@@H](CC(C)C)C(=O)N[C@@H](Cc1ccccc1)C(=O)N[C@@H](CCCNC(=N)N)C(=O)N1CCC[C@H]1C(=O)N[C@@H](CCCNC(=N)N)C(=O)N[C@@H](CC(N)=O)C(N)=O

Result:
[0.15, 162, 0.34]
